B1: Pistol ribozyme (parent)
chain: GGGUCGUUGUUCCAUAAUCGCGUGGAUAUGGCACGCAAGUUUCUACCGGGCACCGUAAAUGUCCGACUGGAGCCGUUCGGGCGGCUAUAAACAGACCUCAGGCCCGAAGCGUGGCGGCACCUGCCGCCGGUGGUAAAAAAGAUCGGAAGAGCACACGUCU

Variants of: B1
test.name: aptazyme ON/OFF ratio, guanine; higher = stronger switching; co-transcriptional cleavage with and without guanine
Examples of variants with documented aptazyme ON/OFF ratio follow.

| variant.identifier | aptazyme ON/OFF ratio |
| --- | --- |
| U7C U8A G9A U10A C12A | 1.19 |
| U7A U8G G9A U10G U11G C12U C13U | 1.22 |
| U8A G9A U10G U11G | 1.07 |
| G9C U10G U11C C12U C13G | 1.09 |
| U7C U8C G9C U10A U11G C12A C13A | 1.07 |
| U7G G9U U10A C12U | 1.54 |
| U7C U8A G9U U10G U11A C12G C13G | 1.22 |
| U7A U8C G9U C12A C13A | 1.15 |
| U7C U8A U10C | 1.76 |
| U7G U10A U11C C12A C13G | 1.2 |
| U7C U8C G9A U10C U11C C12G C13U | 1.29 |
| U7G U8G G9U U10A U11G C12G C13G | 1.06 |
| U7A U8C G9U U10C U11G C12U C13A | 1.15 |
| U7A U8A U10C C12U | 1.68 |
| U7A U8A G9A U10A U11C C13U | 1.08 |
| U7C U8G G9A U10G U11A | 1.05 |
| U7G U8A G9U U10A C13U | 1.02 |
| U7C U8G G9C U10G U11G C12G C13A | 1.1 |
| U8G U10A U11A C12A C13U | 1.13 |
| U7A U8G G9C U10A | 1.24 |
| U7C U8G G9C U10G U11G C12U C13U | 1.11 |
| U7A U8A G9A U10G U11C C13G | 1.08 |
